experimental target: full length SGK1 (Homo sapiens)
Construct: 125 μM full length SGK1 (Life Technologies Part #PR7358A); purchased Life Technologies PR7358A
experimental protocol: SGK1 inhibition Assay A (Caliper LabChip electrophoretic separation of fluorescent peptide substrate and phosphorylated product)
Type: biochemical
condition details: Assay A; 20 μM ATP, 40 min incubation; read-out: SGK1 IC50
measurement kind: IC50 (nM)
Give your result in nM as a bare value.

Examples with their reported IC50 follow.
# chemical string, IC50 (nM)
measured = [
    ("COC(=O)N1CC=C(c2cc(N3CCC[C@@H](NC(=O)c4sc(Cl)cc4OC4CCN(CCO)CC4)C3)c3c(N)ncnn23)C1", 2),
    ("Cc1ccc(C(=O)N[C@@H]2CCCN(c3c(Br)c(-c4ccc(S(C)(=O)=O)cc4)n4ncnc(N)c34)C2)s1", 188),
    ("COc1cc(C(=O)N[C@@H]2CCCN(c3cc(-c4ccc(S(C)(=O)=O)cc4)n4ncnc(N)c34)C2)c(OC)nn1", 261),
]

Now look at this one.
Query string: Would you kindly share the measured IC50 for CC(=O)N1CC=C(c2cc(N3CCC[C@@H](NC(=O)c4sc(C)nc4OC4CCN(C(C)C)CC4)C3)c3c(N)ncnn23)C1 ?
Result string: 29

====

Reported values of IC50 for individual entries
experimental target: full length SGK1 (Homo sapiens)
Construct: 125 μM full length SGK1 (Life Technologies Part #PR7358A); purchased Life Technologies PR7358A
Sequence (O00141 1-431): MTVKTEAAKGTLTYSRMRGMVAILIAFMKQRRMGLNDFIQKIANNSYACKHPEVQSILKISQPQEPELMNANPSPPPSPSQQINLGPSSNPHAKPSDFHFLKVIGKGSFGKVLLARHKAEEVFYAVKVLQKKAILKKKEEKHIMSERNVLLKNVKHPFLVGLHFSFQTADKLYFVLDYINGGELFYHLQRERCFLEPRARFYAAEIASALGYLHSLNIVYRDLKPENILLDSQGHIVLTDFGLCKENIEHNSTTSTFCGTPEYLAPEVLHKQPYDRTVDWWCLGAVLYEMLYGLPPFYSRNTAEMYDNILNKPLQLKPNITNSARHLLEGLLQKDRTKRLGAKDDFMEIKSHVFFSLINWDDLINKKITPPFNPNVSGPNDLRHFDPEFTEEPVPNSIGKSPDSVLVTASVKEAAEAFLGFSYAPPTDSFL
experimental protocol: SGK1 inhibition Assay A (Caliper LabChip electrophoretic separation of fluorescent peptide substrate and phosphorylated product)
Type: biochemical
condition details: Assay A; 20 μM ATP, 40 min incubation; read-out: SGK1 IC50
Where a name gives a salt, the structure may show the parent alone.
Give your result in nM as a bare value.

Examples with their reported IC50 follow.
# compound, IC50, nM
measured = [
    ("Nc1ncnn2c(-c3cncnc3)cc(N3CCC[C@@H](NC(=O)c4cc5ccccc5[nH]4)C3)c12", 195),
    ("N#Cc1cc(-c2cc(N3CCC[C@@H](NC(=O)c4ccc(C(F)F)s4)C3)c3c(N)ncnn23)ccn1", 6),
    ("COC(=O)N1CC=C(c2cc(N3CCC[C@@H](NC(=O)c4sc(C(F)F)cc4OC4CCNCC4)C3)c3c(N)ncnn23)C1", 6),
]

Query string: Would you kindly share the measured IC50 for Cc1ccc(C(=O)N[C@@H]2CCN(c3cc(-c4ccc(S(C)(=O)=O)cc4)n4ncnc(N)c34)C2)s1 [Example 136, TFA] ?
Result string: 230
